Biological target: Human immunodeficiency virus type 1 integrase (Human immunodeficiency virus 1)
Sequence (Q7ZJM1 whole entry): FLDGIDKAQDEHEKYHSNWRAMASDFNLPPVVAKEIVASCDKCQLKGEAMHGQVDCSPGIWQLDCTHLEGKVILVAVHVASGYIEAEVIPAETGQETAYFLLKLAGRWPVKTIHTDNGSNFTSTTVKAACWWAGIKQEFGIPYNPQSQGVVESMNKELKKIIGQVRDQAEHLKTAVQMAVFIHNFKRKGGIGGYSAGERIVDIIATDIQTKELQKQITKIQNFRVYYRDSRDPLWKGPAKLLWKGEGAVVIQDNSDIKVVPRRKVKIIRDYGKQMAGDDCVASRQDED
Experiment: Inhibition of recombinant HIV1 integrase-mediated 3'-processing activity in presence of manganese
pIC50: −log10 of the molar value.
Reported pIC50 by item:

Some entries whose results are on file:
> print(dat)
                                compound                           measured.target  parameter.measured  reported.result
1         O=C(NNC(=O)c1ccccc1O)c1ccccc1O  Human immunodeficiency virus type 1 integrase (Human immunodeficiency virus 1)               pIC50             5.44
2  COc1cccc(/C=N/NC(=O)c2cccc(O)c2O)c1OC  Human immunodeficiency virus type 1 integrase (Human immunodeficiency virus 1)               pIC50           < 3.48
3                    NNC(=O)c1cccc(O)c1O  Human immunodeficiency virus type 1 integrase (Human immunodeficiency virus 1)               pIC50           < 3.48

Please examine the following record next.
The molecule identified as `COc1cccc(C(=O)NN)c1O` registered its pIC50 at < 3.48

* * *

Biological target: UniProt:Q7ZJM1
Experiment: Inhibition of recombinant HIV1 integrase strand transfer activity in presence of manganese
parameter_measured: IC50 (µM)

Some entries whose results are on file:
> print(dat)
                                compound  reported.result
1         O=C(NNC(=O)c1ccccc1O)c1ccccc1O              1.8
2  COc1cccc(/C=N/NC(=O)c2cccc(O)c2O)c1OC               18
3   O=C(NNC(=O)c1cccc(O)c1O)c1cccc(O)c1O                5

a: COc1cccc(C(=O)NNC(=O)c2cccc(OC)c2O)c1O
b: COc1cccc(C(=O)NNC(=O)c2cc3ccccc3cc2O)c1O
c: O=C(NNC(=O)c1cccc(O)c1O)c1cccnc1
Arrange these 3 compounds in increasing order of IC50. Please reply with the labels ordered as requested. Many thanks. b, a, c
(b: 8 µM, a: 22 µM, c: 112 µM)
